organism: Rattus norvegicus; experiment: Open TG-GATES - Regimen: Daily Repeat; type: toxicity, organism-based, Sprague-Dawley; parameters: regimen Daily Repeat, gender Male, age 6 weeks; conditions: in vivo, po, 0 mg/kg, […], tissue Plasma, route gavage, dose level Control, time 7 day
readout: RALB (g/dL)

compound: Cc1cccc(Nc2cc(Cl)nc(SCC(=O)O)n2)c1C
recordedNumber: 2.7
--
compound: COc1ccc(O)c(C(C)(C)C)c1.COc1ccc(O)cc1C(C)(C)C [BUTYLATED HYDROXYANISOLE]
recordedNumber: 2.6
--
compound: O=P1(N(CCCl)CCCl)NCCCO1 (stereo unspecified) [CYCLOPHOSPHAMIDE ANHYDROUS]
recordedNumber: 2.9
--
compound: Cc1cnc(NC(=O)C2=C(O)c3ccccc3S(=O)(=O)N2C)s1
recordedNumber: 3.3
--
compound: CS(=O)(=O)Nc1ccc([N+](=O)[O-])cc1Oc1ccccc1 [NIMESULIDE]
recordedNumber: 4
--
compound: O=C1NC(=O)C(c2ccccc2)(c2ccccc2)N1
recordedNumber: 2.9
--
compound: COc1ccc(Cl)cc1C(=O)NCCc1ccc(S(=O)(=O)NC(=O)NC2CCCCC2)cc1 [GLYBURIDE]
recordedNumber: 3.3
--
compound: O=C1CN(/N=C/c2ccc(-c3ccc([N+](=O)[O-])cc3)o2)C(O)=N1
recordedNumber: 3.8
--
compound: Cn1cnc([N+](=O)[O-])c1Sc1ncnc2nc[nH]c12
recordedNumber: 3
--
compound: C=CCO
recordedNumber: 3.4
--
compound: Cn1c(=O)c2c(ncn2C)n(C)c1=O
recordedNumber: 3

----------
species: Rattus norvegicus; test: Open TG-GATES - Regimen: Single; assay type: toxicity, organism-based, Sprague-Dawley; design: regimen Single, gender Male, age 6 weeks; details: in vivo, po, 0 mg/kg, 3 h, tissue Plasma, route gavage, dose level Control
Reported TBIL values are given for each entry in this list.

molecule: COc1ccc(O)c(C(C)(C)C)c1.COc1ccc(O)cc1C(C)(C)C [BUTYLATED HYDROXYANISOLE]
uom: mg/dL
TBIL: 0.076

molecule: S=C=Nc1cccc2ccccc12 [1-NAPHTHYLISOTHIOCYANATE]
uom: mg/dL
TBIL: 0.1

molecule: O=C1CN(/N=C/c2ccc(-c3ccc([N+](=O)[O-])cc3)o2)C(O)=N1 [DANTROLENE]
uom: mg/dL
TBIL: 0.3

molecule: O=C1NC(=O)C(c2ccccc2)(c2ccccc2)N1 [PHENYTOIN]
uom: mg/dL
TBIL: 0.056

molecule: Cc1cccc(Nc2cc(Cl)nc(SCC(=O)O)n2)c1C [PIRINIXIC ACID]
uom: mg/dL
TBIL: 0.046

molecule: CNCCC(Oc1ccc(C(F)(F)F)cc1)c1ccccc1.Cl (stereo unspecified) [FLUOXETINE HYDROCHLORIDE]
uom: mg/dL
TBIL: 0.056

molecule: Cn1cnc([N+](=O)[O-])c1Sc1ncnc2nc[nH]c12 [AZATHIOPRINE]
uom: mg/dL
TBIL: 0.006

molecule: C=CCO [ALLYL ALCOHOL]
uom: mg/dL
TBIL: 0.4

molecule: COc1ccc(Cl)cc1C(=O)NCCc1ccc(S(=O)(=O)NC(=O)NC2CCCCC2)cc1 [GLYBURIDE]
uom: mg/dL
TBIL: 0.2

molecule: Cc1cnc(NC(=O)C2=C(O)c3ccccc3S(=O)(=O)N2C)s1 [MELOXICAM]
uom: mg/dL
TBIL: 0.1

molecule: CS(=O)(=O)Nc1ccc([N+](=O)[O-])cc1Oc1ccccc1 [NIMESULIDE]
uom: mg/dL
TBIL: 0.3
